The measurements presented in this section are drawn from PubChem BioAssay.

assay: HUVEC growth inhibition – cell-based, human, primary screen (AID 575); settings: HUVEC proliferation, CellTiter-Glo luminescence, 72 h; at 10 µM; stronger effect = lower value;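 note: 100% = median of untreated cell wells with 0.1% DMSO on each plate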
Answer each item with its documented viability.
One number for each entry, in %.

Use the examples below as a reference point.
Cc1cc(C(=O)NCCCc2ccccc2)no1; 91.4
O=C(CSc1ccc(Cl)cc1)OCc1nnc(-c2ccccc2)o1; 106
O=C(OCc1nnc(-c2ccccc2)o1)c1ccc(S(=O)(=O)NCc2ccco2)cc1; 99.6

Below are 6 molecules. Give each one its viability.
1. O=C(CSc1nnnn1C1CCCC1)Nc1cccc(NC(=O)c2ccco2)c1
2. CN1CCN(C(c2cccc(C(F)(F)F)c2)c2nnnn2C(C)(C)C)CC1 (configuration not stated)
3. COc1cccc(-c2nnc3sc(-c4ccc(C)cc4)nn23)c1
4. O=C(CSc1nc2ccccc2s1)N1CCOCC1
5. COc1ccc(C)cc1NCc1cccc(OC)c1OC
6. CN(C=C1C(=O)CC(C)(C)CC1=O)CCN1CCNCC1

(A)
1. 96.7
2. 102
3. 57
4. 83.6
5. 87.2
6. 90.3

Below are 4 molecules. Give each one its viability.
1. COC(=O)Nc1ccc(S(=O)(=O)N(C)CC(F)(F)C(F)F)cc1
2. CCCc1cc(C(N)=O)c(NC(=O)c2ccco2)s1
3. CCOC(=O)CCCn1nc(C)n2c(cc3sccc32)c1=O
4. Cc1ccc(NC2=NC3(CCCCC3)N=C(N)N2)c(C)c1

(A)
107
94.2
91.8
87.9

Below are 7 molecules. Give each one its viability.
1. CCOC(=O)CC(=O)CSc1[nH]c(=O)cc(C)c1C#N
2. O=c1c2ccccc2nnn1CSc1nc2cc(Cl)ccc2c(=O)n1Cc1ccco1
3. CCN1CCc2c(C#N)c(N3CCOCC3)nc(NCc3ccccc3)c2C1
4. COC(=O)C1=C(C)C(c2cccs2)NC(=O)N1C (configuration not stated)
5. O=C(Nc1ccccc1C(=O)NCC1CCCO1)c1ccco1 (configuration not stated)
6. CCn1c(=S)ccc2ccc(OC)cc21
7. Cc1ccc(S(=O)(=O)Cc2ccc(C(=O)NCc3ccc4c(c3)OCO4)o2)cc1

(A)
1: 99.3; 2: 81.5; 3: 88.4; 4: 102; 5: 97.9; 6: 98.7; 7: 84.7

Below are 7 molecules. Give each one its viability.
1. CCn1c(SCC(=O)c2ccc(OC)cc2)nnc1C(C)NC(=O)c1ccc(OC)cc1 (configuration not stated)
2. Clc1ccc(Cl)c(-c2ccc(/C=N/c3ncn[nH]3)o2)c1
3. O=c1c2ccccc2sn1-c1ccc(S(=O)(=O)N2CCCCC2)cc1
4. NCc1cccc(-n2cccn2)c1
5. Cc1cc(C)n(CCCNC(=O)c2ccc3c(c2)NC(=O)CS3)n1
6. CSc1ccccc1N=CC1=C(O)CC(C)(C)CC1=O
7. COc1ccc(C2C(=O)N(C3CCCCC3)CC(=O)N2Cc2ccco2)cc1 (configuration not stated)

(A)
1: 85.7; 2: 64.5; 3: 83.9; 4: 93.2; 5: 91.8; 6: 67.1; 7: 95.9
